Reference source for all entries: paper PMC11433764

Documented IC50 across a set of compounds
Test system: MDA-MB-453
Test: MTT cell viability, MDA-MB-453
Format: cell-based
Details: Homo sapiens, MDA-MB-453; 48 h, MTT; read-out: IC50 MD-AMB 453 (Table S1)
quantity_measured: IC50

# line_notation, study_system, reported_result
measured = [
    ("CN1CCN(C(=O)c2ccc(N3CCN(S(=O)(=O)c4ccc(Cl)cc4)CC3)nc2)CC1", "MDA-MB-453", "> 160 µM"),
    ("O=S(=O)(c1ccc(Cl)cc1)N1CCNCC1", "MDA-MB-453", "> 160 µM"),
    ("CN(C)C(=O)c1ccc(N2CCN(S(=O)(=O)c3ccccc3)CC2)nc1", "MDA-MB-453", "> 160 µM"),
    ("O=C(O)c1ccc(N2CCN(S(=O)(=O)c3ccc(Cl)cc3)CC2)nc1", "MDA-MB-453", "> 160 µM"),
    ("O=S(=O)(c1ccc(Cl)cc1)N1CCN(c2ccc(O)cc2)CC1", "MDA-MB-453", "> 160 µM"),
    ("Cc1ccc(S(=O)(=O)N2CCN(c3ccc(C(=O)N(C)C)cn3)CC2)cc1", "MDA-MB-453", "> 160 µM"),
    ("O=S(=O)(c1ccc(F)cc1)N1CCN(c2ccccc2)CC1", "MDA-MB-453", "> 160 µM"),
    ("O=C(c1ccc(N2CCN(S(=O)(=O)c3ccc(Cl)cc3)CC2)nc1)N1CCOCC1", "MDA-MB-453", "> 160 µM"),
]

====

System: MDA-MB-231
Assay: MTT cell viability, MDA-MB-231
Assay type: cell-based
Details: Homo sapiens, MDA-MB-231; 48 h, MTT, 1.25–160 μM; read-out: IC50 MDA-MB-231
Documented IC50 across a set of compounds
quantity_measured: IC50 (µM)

# compound, study_system, modifier, reported_result
measured = [
    ("CN(C)C(=O)c1ccc(N2CCN(S(=O)(=O)c3ccc(Cl)cc3)CC2)nc1 [Compound 9]", "MDA-MB-231", ">", 160),
    ("CN(C)Cc1ccc(N2CCN(S(=O)(=O)c3ccc(F)cc3)CC2)nc1 [Compound 11]", "MDA-MB-231", ">", 160),
    ("O=C(c1ccc(N2CCN(S(=O)(=O)c3ccc(Cl)cc3)CC2)nc1)N1CCCC1 [Compound 8]", "MDA-MB-231", "=", 135),
    ("CCOC(=O)c1ccc(N2CCN(S(=O)(=O)c3ccc(Cl)cc3)CC2)nc1 [Compound 6]", "MDA-MB-231", "=", 53.1),
    ("O=C(c1ccc(-n2cnnn2)cc1)N1CCN(S(=O)(=O)c2ccc(Cl)cc2)CC1 [Compound 3]", "MDA-MB-231", "=", 83),
    ("O=S(=O)(c1ccc(Cl)cc1)N1CCN(c2ccc(CO)cn2)CC1 [Compound 7]", "MDA-MB-231", "=", 107),
    ("CN(C)Cc1ccc(N2CCN(S(=O)(=O)c3ccc(Cl)cc3)CC2)nc1 [Compound 10]", "MDA-MB-231", ">", 160),
    ("CN(C)CCNc1ccc(C(=O)N2CCN(S(=O)(=O)c3ccc(Cl)cc3)CC2)cn1 [Compound 5]", "MDA-MB-231", ">", 160),
]
